- Test system: LOX IMVI melanoma
- assay protocol: NCI tumour cell line growth inhibition, 48 h
Consider the following compounds and their measured TGI readings.
Answer format: numeric, µM implied, no suffix.

>  <compound>
CCNC(=S)NNC(=O)c1csc(NC(=S)NC2CCCCC2)n1

>  <target under test>
LOX IMVI melanoma

>  <TGI [µM]>
21.4

$$$$

Request: Which TGI reading was recorded for the compound COc1ccc(F)cc1/C=C/C(=O)/C=C(/C=C/c1cc(F)ccc1OC)OB(F)F ?
Response: 2.56

Request: So what does the record say about TGI for COc1cc2c(cc1OC)C(Cc1ccc(Oc3cc(CC4c5cc(OC)c(OC)cc5CCN4C)ccc3O)cc1)N(C)CC2 (configuration not stated) ?
Response: 32.6

Request: Please give the measured TGI for this compound: CCC[CH2][Sn]([CH2]CCC)([O]C(=O)c1ccc(C)c(N)c1)[O]C(=O)c1ccc(C)c(N)c1
Response: 0.681

Request: Fill blank: measured TGI of the compound COC(=O)C([C@H]1CC[C@H](OCc2ccccc2)[C@@]1(O)COCc1ccccc1)C(C)(O)CCc1ccccc1 (some centres not stated) is ____.
Response: 22.8

Request: Which TGI is listed for CCOCCOc1ccc(OCCOCC)cc1 ?
Response: 33.8

Request: Can you share its TGI? I mean this compound: COc1cccc2cc(N(C)c3ncnc4ccccc34)ccc12
Response: 13.5

Request: Entry under review: COc1ccc(C(O)c2cc3c(N)c(C(=O)Nc4cccc(OC)c4)sc3nc2C)cc1 (configuration not stated) . Reported TGI?
Response: 1.64

Request: So what does the record say about TGI for CC(=O)NC1=C(C)C(=O)c2c(nc3n2CCC3OC(=O)CCl)C1=O (configuration not stated) ?
Response: 16.8

---

- Tested on: CCRF-CEM leukemia
- assay protocol: NCI tumour cell line growth inhibition, 48 h; in the data active = GI50 below about 0.43 µM; inactive = the rest
Return exactly one item of yes (1) (active), no (0) (inactive)

Before answering, review these 3 worked examples.
>  <compound>
CC(C)=NNc1ncnc2c1ncn2C1OC(CO)C(O)C1O (centres undefined)

>  <class name>
no (0)

$$$$
>  <compound>
CCN(CC)c1ccc2c(cc1=O)[C@@H](NC(C)=O)CCc1cc(OC)c(OC)c(OC)c1-2

>  <class name>
yes (1)

$$$$
>  <compound>
Oc1c(Cl)cc(Cl)c2ccc(Cn3cc(-c4cc(F)cc(F)c4)nn3)nc12

>  <class name>
no (0)

$$$$

Request: Check the results log: what was the call for COc1cccc2cc(N(C)c3ncnc4ccccc34)ccc12 ?
Response: yes (1)

---

Each record here notes measured TGI.
- Tested on: SF-295 CNS
- assay protocol: NCI tumour cell line growth inhibition, 48 h
*1 amine or outer side, *2 acyl side, *3 side chain or, on linkers, in order; H or OH if unused. Where a SMILES comes first, the peptide text is derived from it. Bridges are numbered along the chain shown (N, C = ends). [ ]: non-standard residue; d: D form. The star is where a group is joined. Phe(3,5-F2) = N[C@@H](Cc1cc(F)cc(F)c1)C(=O)O; Pro(4R-Me) = C[C@H]1CN[C@H](C(=O)O)C1; aThr = C[C@H](O)[C@H](N)C(=O)O; Pip = O=C(O)[C@@H]1CCCCN1; X10 = Fc1cc(C2CC2)ccc1N*; Abu = CC[C@H](N)C(=O)O; CO = O=C([*:1])[*:2]

Observe how each entry below is paired with its result.
>  <compound>
CC[C@@H]1NC(=O)[C@@H]2CCCCN2C(=O)[C@@H]2CCCN2C(=O)[C@@H](NC(=O)[C@H](Cc2cc(F)cc(F)c2)NC(=O)Nc2ccc(C3CC3)cc2F)[C@H](C)OC(=O)[C@@H]2C[C@@H](C)CN2C1=O ({X10-CO}-[Phe(3,5-F2)][aThr]P[Pip][Abu][Pro(4R-Me)]; ester 2-C)

>  <measurement kind>
TGI

>  <measured result>
1.54 µM

$$$$
>  <compound>
COC(=O)[C@]12CC[C@H]3CN(C(=O)OCc4ccccc4)[C@H]([C@H]31)[C@H](C(=O)OCC[Si](C)(C)C)N2S(=O)(=O)c1ccc(C)cc1

>  <measurement kind>
TGI

>  <measured result>
> 100 µM

$$$$
>  <compound>
N.N.NCCCCCCN.O=C([O-])CCl.O=C([O-])CCl.O=C([O-])CCl.O=C([O-])CCl.[Pt+4].[Pt+4]

>  <measurement kind>
TGI

>  <measured result>
> 50 µM

$$$$

Okay, now this compound:
Request: Entry under review: CCc1nc(N)nc(N)c1-c1ccc(Cc2ccccc2)c([N+](=O)[O-])c1 . Reported TGI?
Response: > 65.5 µM
